# tgt: mouse Mdr1a (Mus musculus, UniProt P21447)
# Sequence (P21447 whole entry): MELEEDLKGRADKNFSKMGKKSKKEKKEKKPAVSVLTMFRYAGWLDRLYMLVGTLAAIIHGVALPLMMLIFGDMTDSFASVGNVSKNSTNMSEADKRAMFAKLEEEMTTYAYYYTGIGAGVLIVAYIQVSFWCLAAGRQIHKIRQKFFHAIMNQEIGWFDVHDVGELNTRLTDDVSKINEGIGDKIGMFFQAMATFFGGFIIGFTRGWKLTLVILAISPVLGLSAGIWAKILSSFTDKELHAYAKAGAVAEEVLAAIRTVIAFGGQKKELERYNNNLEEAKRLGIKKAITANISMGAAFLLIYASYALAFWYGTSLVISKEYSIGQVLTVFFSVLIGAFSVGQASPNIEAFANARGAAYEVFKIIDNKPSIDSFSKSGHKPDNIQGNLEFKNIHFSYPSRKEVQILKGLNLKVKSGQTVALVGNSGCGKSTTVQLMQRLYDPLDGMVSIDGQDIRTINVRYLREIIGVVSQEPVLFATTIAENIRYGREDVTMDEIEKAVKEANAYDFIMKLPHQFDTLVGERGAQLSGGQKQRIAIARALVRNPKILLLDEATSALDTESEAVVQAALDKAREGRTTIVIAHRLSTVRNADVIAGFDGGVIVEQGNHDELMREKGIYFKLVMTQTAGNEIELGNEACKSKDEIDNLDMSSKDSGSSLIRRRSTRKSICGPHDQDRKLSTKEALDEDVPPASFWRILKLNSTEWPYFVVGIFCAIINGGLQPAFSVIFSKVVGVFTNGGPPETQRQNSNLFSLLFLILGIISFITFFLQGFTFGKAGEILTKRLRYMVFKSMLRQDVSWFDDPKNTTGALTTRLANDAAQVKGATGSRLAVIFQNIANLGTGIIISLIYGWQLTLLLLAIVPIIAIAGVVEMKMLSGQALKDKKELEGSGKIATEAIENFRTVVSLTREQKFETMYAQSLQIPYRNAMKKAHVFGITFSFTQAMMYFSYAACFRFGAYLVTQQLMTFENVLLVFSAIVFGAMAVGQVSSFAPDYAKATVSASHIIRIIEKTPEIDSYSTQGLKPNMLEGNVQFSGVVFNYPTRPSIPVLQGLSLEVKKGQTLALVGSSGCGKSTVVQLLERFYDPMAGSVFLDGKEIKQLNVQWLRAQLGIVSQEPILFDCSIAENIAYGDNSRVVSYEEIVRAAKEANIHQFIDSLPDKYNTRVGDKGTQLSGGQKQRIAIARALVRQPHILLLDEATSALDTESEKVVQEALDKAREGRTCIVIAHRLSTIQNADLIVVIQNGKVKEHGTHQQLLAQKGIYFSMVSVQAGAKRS
# assay protocol: Bidirectional transport assay, efflux ratio in Abcb1KO-MDCKII mMDR1 cells
# assay setup: mouse, pH 7.4
# efflux ratio at 120 min, 1 µM per record follows

Answered cases to consult:
{"compound": "CC(C)C[C@H]1C(=O)N2CCC[C@H]2[C@]2(O)O[C@](NC(=O)[C@@H]3C=C4c5cccc6[nH]c(Br)c(c56)C[C@H]4N(C)C3)(C(C)C)C(=O)N12 [Bromocriptine]", "tgt": "mouse Mdr1a (Mus musculus, UniProt P21447)", "efflux ratio at 120 min, 1 µM": 1.39}
{"compound": "O=C(O)CCCN1CCC(O[C@@H](c2ccc(Cl)cc2)c2ccccn2)CC1 [Bepotastine]", "tgt": "mouse Mdr1a (Mus musculus, UniProt P21447)", "efflux ratio at 120 min, 1 µM": 10}
{"compound": "O=C1CC[C@@]2(O)[C@H]3Cc4ccc(O)c5c4[C@@]2(CCN3CC2CC2)[C@H]1O5 [Naltrexone]", "tgt": "mouse Mdr1a (Mus musculus, UniProt P21447)", "efflux ratio at 120 min, 1 µM": 1.35}
{"compound": "CC(=O)O[C@H]1C(=O)[C@@]2(C)[C@H]([C@H](OC(=O)c3ccccc3)[C@]3(O)C[C@H](OC(=O)[C@H](O)[C@@H](NC(=O)c4ccccc4)c4ccccc4)C(C)=C1C3(C)C)[C@]1(OC(C)=O)CO[C@@H]1C[C@@H]2O [Paclitaxel]", "tgt": "mouse Mdr1a (Mus musculus, UniProt P21447)", "efflux ratio at 120 min, 1 µM": 57.7}
{"compound": "CN(C)CCc1c[nH]c2ccc(C[C@H]3COC(=O)N3)cc12 [Zolmitriptan]", "tgt": "mouse Mdr1a (Mus musculus, UniProt P21447)", "efflux ratio at 120 min, 1 µM": 1.99}
{"compound": "Cc1ncc2n1-c1ccc(Cl)cc1C(c1ccccc1F)=NC2 [Midazolam]", "tgt": "mouse Mdr1a (Mus musculus, UniProt P21447)", "efflux ratio at 120 min, 1 µM": 0.4}
{"compound": "CC(C)(C)NC(=O)[C@@H]1CN(Cc2cccnc2)CCN1C[C@@H](O)C[C@@H](Cc1ccccc1)C(=O)N[C@H]1c2ccccc2C[C@H]1O [Indinavir]", "tgt": "mouse Mdr1a (Mus musculus, UniProt P21447)", "efflux ratio at 120 min, 1 µM": 11.2}
{"compound": "COc1cc2nc(N3CCN(C(=O)c4ccco4)CC3)nc(N)c2cc1OC [Prazosin]", "tgt": "mouse Mdr1a (Mus musculus, UniProt P21447)", "efflux ratio at 120 min, 1 µM": 5.14}

Ask: Look up and report measured efflux ratio at 120 min, 1 µM for this entry: COc1ccc2c(c1)c(CC(=O)O)c(C)n2C(=O)c1ccc(Cl)cc1 [Indomethacin]
Reply: 0.39

Ask: State, in one line, measured efflux ratio at 120 min, 1 µM of CCN(CC)C(=O)/C(C#N)=C/c1cc(O)c(O)c([N+](=O)[O-])c1 [Entacapone]
Reply: 0.34

Ask: Identify measured efflux ratio at 120 min, 1 µM associated with COc1cccc2c1C(=O)c1c(O)c3c(c(O)c1C2=O)C[C@@](O)(C(C)=O)C[C@@H]3O[C@H]1C[C@H](N)[C@H](O)[C@H](C)O1 [Daunorubicin]
Reply: 27.7

Ask: Kindly indicate its recorded efflux ratio at 120 min, 1 µM. Item: CNS(=O)(=O)Cc1ccc2[nH]cc(CCN(C)C)c2c1 [Sumatriptan]
Reply: 1.76

Ask: Please look at this compound and report its efflux ratio at 120 min, 1 µM: CC/C(=C(\c1ccccc1)c1ccc(OCCN(C)C)cc1)c1ccccc1 [Tamoxifen]
Reply: 2.26

Ask: Specify measured efflux ratio at 120 min, 1 µM for Cc1nc2n(c(=O)c1CCN1CCC(c3noc4cc(F)ccc34)CC1)CCCC2O (centres unmarked) [Paliperidone] .
Reply: 8.26

Ask: Fill in efflux ratio at 120 min, 1 µM for record CN/C(=N/CCSCc1nc[nH]c1C)NC#N [Cimetidine]
Reply: 2.83

====

# tgt: human MDR1 (Homo sapiens, UniProt P08183)
# Sequence (P08183 whole entry): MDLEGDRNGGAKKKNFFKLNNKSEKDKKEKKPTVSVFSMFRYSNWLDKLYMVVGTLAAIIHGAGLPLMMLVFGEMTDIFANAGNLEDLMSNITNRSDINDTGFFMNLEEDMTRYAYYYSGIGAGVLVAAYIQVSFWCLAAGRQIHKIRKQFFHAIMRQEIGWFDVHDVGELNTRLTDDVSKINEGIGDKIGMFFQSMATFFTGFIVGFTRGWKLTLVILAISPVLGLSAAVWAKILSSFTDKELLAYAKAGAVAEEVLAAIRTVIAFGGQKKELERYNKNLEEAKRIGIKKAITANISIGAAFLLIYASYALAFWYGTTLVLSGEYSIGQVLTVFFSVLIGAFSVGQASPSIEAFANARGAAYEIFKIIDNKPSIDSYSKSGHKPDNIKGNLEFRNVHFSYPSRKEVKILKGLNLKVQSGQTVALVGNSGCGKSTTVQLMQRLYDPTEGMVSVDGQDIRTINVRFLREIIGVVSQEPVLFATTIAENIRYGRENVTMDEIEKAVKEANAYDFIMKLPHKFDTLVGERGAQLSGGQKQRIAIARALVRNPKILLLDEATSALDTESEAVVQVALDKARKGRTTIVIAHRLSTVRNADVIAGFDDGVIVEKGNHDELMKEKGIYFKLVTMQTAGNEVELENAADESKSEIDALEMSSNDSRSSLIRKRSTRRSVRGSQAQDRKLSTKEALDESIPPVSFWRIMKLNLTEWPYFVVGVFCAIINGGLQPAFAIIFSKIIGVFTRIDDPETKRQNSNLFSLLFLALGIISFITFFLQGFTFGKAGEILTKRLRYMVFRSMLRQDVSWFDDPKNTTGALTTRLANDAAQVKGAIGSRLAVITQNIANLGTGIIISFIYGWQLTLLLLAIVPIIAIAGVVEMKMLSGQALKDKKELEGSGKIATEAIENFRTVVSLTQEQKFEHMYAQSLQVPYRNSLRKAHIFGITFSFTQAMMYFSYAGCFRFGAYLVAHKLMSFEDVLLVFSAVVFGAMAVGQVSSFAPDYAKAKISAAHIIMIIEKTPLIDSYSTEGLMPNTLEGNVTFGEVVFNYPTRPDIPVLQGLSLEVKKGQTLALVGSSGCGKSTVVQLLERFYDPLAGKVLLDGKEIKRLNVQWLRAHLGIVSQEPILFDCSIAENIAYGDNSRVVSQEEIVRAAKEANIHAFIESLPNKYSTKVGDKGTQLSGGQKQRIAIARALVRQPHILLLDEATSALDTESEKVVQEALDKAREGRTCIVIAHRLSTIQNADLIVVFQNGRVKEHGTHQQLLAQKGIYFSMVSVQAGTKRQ
# assay protocol: Inhibition of 3H-digoxin or 3H-quinidine bidirectional transport in hMDR1 cells
# assay setup: Inhibition of digoxin transport IC50±SD, hMDR1, probe 3H-digoxin 1 µM, 120 min; IC50 from ER
assay readout: IC50

Ask: Look up and state reported IC50 for Cc1ccc(-c2ncc(Cl)cc2-c2ccc(S(C)(=O)=O)cc2)cn1
Reply: > 100 µM

Ask: Entry Cc1ccccc1C(=O)Nc1ccc(C(=O)N2CCCC(O)c3cc(Cl)ccc32)c(C)c1 (stereo not shown) needs its IC50 filled in; supply it.
Reply: > 30 µM

Ask: In one line, give reported IC50 of the entry COC(=O)C1=C(C)NC(C)=C(C(=O)OC(C)C)C1c1cccc2nonc12 (stereo not shown) .
Reply: > 50 µM

Ask: Complete the entry with IC50 for CCOC(=O)C1=C(C)NC(C)=C(C(=O)OC)C1c1cccc([N+](=O)[O-])c1 (stereo not shown)
Reply: > 50 µM

====

# tgt: rat Mdr1a (Rattus norvegicus, UniProt Q6PSM0)
# Sequence (Q6PSM0 1-1272): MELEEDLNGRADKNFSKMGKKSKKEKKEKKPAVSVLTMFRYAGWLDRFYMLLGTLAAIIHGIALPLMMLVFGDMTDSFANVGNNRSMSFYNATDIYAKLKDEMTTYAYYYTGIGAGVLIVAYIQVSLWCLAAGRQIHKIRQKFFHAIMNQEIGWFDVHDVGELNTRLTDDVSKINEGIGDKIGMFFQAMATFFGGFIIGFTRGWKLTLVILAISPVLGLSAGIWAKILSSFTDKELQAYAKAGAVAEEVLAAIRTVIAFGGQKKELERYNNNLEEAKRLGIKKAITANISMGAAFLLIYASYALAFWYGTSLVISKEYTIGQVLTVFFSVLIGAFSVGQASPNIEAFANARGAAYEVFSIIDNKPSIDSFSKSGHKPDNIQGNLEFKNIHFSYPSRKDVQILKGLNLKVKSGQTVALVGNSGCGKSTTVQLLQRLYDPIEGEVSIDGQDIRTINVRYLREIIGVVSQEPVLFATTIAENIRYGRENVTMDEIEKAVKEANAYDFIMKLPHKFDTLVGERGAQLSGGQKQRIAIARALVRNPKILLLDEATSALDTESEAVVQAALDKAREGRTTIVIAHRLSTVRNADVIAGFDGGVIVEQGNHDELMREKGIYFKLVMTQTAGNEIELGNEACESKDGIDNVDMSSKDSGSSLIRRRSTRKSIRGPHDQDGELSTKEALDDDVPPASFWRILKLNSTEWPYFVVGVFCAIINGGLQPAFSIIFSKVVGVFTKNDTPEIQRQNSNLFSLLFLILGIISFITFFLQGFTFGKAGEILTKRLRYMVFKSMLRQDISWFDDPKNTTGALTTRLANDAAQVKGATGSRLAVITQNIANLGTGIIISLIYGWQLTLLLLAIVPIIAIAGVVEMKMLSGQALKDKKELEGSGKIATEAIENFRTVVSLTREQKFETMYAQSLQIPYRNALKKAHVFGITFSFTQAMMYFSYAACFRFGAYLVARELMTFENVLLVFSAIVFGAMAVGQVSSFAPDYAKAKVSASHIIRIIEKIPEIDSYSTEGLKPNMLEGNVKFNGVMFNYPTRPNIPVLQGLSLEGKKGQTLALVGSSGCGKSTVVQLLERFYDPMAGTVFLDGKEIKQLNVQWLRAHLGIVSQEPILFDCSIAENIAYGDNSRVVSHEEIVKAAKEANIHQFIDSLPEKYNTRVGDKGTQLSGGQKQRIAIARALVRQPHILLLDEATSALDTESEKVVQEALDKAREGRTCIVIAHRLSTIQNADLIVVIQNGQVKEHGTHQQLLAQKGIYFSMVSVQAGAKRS
# assay protocol: Bidirectional transport assay, efflux ratio in Abcb1KO-MDCKII rMDR1 cells
# assay setup: rat, pH 7.4
Values of efflux ratio at 120 min, 1 µM strictly less than 2 map to 1, and values of at least 2 map to -1.

// below: answered compounds
{"compound": "O=C1c2c(O)ccc(O)c2C(=O)c2c(NCCNCCO)ccc(NCCNCCO)c21 [Mitoxantrone]", "assigned label": -1}
{"compound": "Cc1ncc2n1-c1ccc(Cl)cc1C(c1ccccc1F)=NC2 [Midazolam]", "assigned label": 1}
{"compound": "COc1cc2nc(N3CCN(C(=O)c4ccco4)CC3)nc(N)c2cc1OC [Prazosin]", "assigned label": -1}
{"compound": "CN(C)CCC(c1ccccc1)c1ccccn1 (stereo not shown) [Pheniramine]", "assigned label": 1}
{"compound": "COc1ccccc1OCCNCC(O)COc1cccc2[nH]c3ccccc3c12 (stereo not shown) [Carvedilol]", "assigned label": -1}

Ask: Please determine if CN(C)CCCN1c2ccccc2CCc2ccccc21 [Imipramine] is below 2 in terms of efflux ratio at 120 min, 1 µM.
Reply: 1

Ask: For CC/C(=C(\c1ccccc1)c1ccc(OCCN(C)C)cc1)c1ccccc1 [Tamoxifen] , is the recorded efflux ratio at 120 min, 1 µM below the cut-off of 2?
Reply: 1

====

# tgt: cynomolgus monkey Mdr1 (Macaca fascicularis)
# Sequence (Q8HZQ6 1-1283): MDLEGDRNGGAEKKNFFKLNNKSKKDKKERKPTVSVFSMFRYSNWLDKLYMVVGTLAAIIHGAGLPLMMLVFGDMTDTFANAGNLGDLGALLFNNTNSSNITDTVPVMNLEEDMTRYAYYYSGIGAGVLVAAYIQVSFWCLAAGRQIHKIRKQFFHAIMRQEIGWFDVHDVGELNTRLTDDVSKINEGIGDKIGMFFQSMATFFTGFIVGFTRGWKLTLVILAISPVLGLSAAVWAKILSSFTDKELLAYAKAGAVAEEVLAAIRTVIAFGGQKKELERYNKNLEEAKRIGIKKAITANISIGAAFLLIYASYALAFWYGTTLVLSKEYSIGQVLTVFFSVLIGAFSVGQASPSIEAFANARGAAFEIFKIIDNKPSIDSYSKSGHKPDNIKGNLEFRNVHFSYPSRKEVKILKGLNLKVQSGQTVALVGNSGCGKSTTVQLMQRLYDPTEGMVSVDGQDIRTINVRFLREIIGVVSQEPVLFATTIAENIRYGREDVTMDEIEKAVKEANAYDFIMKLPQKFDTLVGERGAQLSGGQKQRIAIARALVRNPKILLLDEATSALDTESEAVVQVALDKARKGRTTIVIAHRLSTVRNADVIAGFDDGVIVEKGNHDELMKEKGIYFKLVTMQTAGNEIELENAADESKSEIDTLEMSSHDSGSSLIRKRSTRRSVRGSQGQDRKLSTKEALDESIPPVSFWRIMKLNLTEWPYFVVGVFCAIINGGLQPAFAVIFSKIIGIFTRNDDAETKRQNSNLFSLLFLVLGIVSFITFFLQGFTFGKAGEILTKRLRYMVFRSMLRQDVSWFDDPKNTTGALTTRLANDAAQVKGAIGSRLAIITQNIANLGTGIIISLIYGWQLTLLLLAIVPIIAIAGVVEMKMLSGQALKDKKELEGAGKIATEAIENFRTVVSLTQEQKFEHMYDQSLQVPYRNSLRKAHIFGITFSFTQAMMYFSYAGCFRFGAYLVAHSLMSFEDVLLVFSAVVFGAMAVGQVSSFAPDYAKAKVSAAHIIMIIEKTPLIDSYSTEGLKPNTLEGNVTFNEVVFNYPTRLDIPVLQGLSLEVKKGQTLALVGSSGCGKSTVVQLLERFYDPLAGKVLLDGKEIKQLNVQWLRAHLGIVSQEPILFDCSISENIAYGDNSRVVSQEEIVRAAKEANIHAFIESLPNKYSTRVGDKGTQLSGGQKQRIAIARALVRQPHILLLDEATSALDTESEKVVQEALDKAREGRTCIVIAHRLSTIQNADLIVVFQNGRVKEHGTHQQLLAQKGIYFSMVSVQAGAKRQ
# assay protocol: Inhibition of 3H-digoxin or 3H-quinidine bidirectional transport in cyMDR1 cells
# assay setup: Inhibition of quinidine transport IC50±SD, cyMDR1, probe 3H-quinidine 0.1 µM, 60 min; IC50 from ER
assay readout: IC50
Report the figure along with its unit, number first.

Ask: Identify measured IC50 associated with CCOC(=O)C1=C(C)NC(C)=C(C(=O)OC)C1c1cccc([N+](=O)[O-])c1 (stereo not drawn)
Reply: 17.5 µM

Ask: Determine from records and report IC50 for COc1ccccc1OCCNCC(O)COc1cccc2[nH]c3ccccc3c12 (stereo not drawn)
Reply: 1.02 µM

Ask: Item Cc1ccc(-c2ncc(Cl)cc2-c2ccc(S(C)(=O)=O)cc2)cn1 : provide IC50
Reply: 25.9 µM

====

# tgt: UniProtKB P08183
# assay protocol: Bidirectional transport assay, efflux ratio in Abcb1KO-MDCKII hMDR1 cells
# assay setup: human, MDCK-MDR1, pH 7.4
Listing: efflux ratio at 120 min, 1 µM of selected molecules
API note: the answer field is a bare number with no unit suffix.

{"molecule": "NC(=O)N1c2ccccc2C=Cc2ccccc21 [Carbamazepine]", "efflux ratio at 120 min, 1 µM": 0.62}
{"molecule": "COc1cc(Cc2cnc(N)nc2N)cc(OC)c1OC [Trimethoprim]", "efflux ratio at 120 min, 1 µM": 7.29}
{"molecule": "O=C(O)CCCN1CCC(O[C@@H](c2ccc(Cl)cc2)c2ccccn2)CC1 [Bepotastine]", "efflux ratio at 120 min, 1 µM": 9.51}
{"molecule": "CC(=O)O[C@H]1C(=O)[C@@]2(C)[C@H]([C@H](OC(=O)c3ccccc3)[C@]3(O)C[C@H](OC(=O)[C@H](O)[C@@H](NC(=O)c4ccccc4)c4ccccc4)C(C)=C1C3(C)C)[C@]1(OC(C)=O)CO[C@@H]1C[C@@H]2O [Paclitaxel]", "efflux ratio at 120 min, 1 µM": 40.2}

# context switch: different molecule, same efflux ratio at 120 min, 1 µM
Ask: Indicate the recorded efflux ratio at 120 min, 1 µM value for this molecule: N=C(N)NC(=O)Cc1c(Cl)cccc1Cl [Guanfacine]
Reply: 2.04

====

# tgt: mouse Mdr1a (Mus musculus, UniProt P21447)
# assay protocol: Bidirectional transport assay, efflux ratio in Abcb1KO-MDCKII mMDR1 cells
# assay setup: mouse, pH 7.4
// map efflux ratio at 120 min, 1 µM to label using bottom end = under 1, midrange = from 1 up to 7, top end = 7 and over

Record excerpt, results attached:
{"compound": "N=C(N)N/N=C/c1c(Cl)cccc1Cl", "tgt": "mouse Mdr1a (Mus musculus, UniProt P21447)", "assigned label": "midrange"}
{"compound": "C[C@]12C=CC(=O)C=C1CC[C@@H]1[C@@H]2C(=O)C[C@@]2(C)[C@H]1CC[C@]2(O)C(=O)CO", "tgt": "mouse Mdr1a (Mus musculus, UniProt P21447)", "assigned label": "midrange"}
{"compound": "Cc1cccc(C)c1OCC(C)N (centres unmarked)", "tgt": "mouse Mdr1a (Mus musculus, UniProt P21447)", "assigned label": "bottom end"}
{"compound": "NC(N)=Nc1nc(CSCCC(N)=NS(N)(=O)=O)cs1", "tgt": "mouse Mdr1a (Mus musculus, UniProt P21447)", "assigned label": "bottom end"}
{"compound": "Cc1ccc(NC(=O)c2ccc(CN3CCN(C)CC3)cc2)cc1Nc1nccc(-c2cccnc2)n1", "tgt": "mouse Mdr1a (Mus musculus, UniProt P21447)", "assigned label": "top end"}
{"compound": "CN[C@H]1CC[C@@H](c2ccc(Cl)c(Cl)c2)c2ccccc21", "tgt": "mouse Mdr1a (Mus musculus, UniProt P21447)", "assigned label": "midrange"}

Ask: Which category does the recorded efflux ratio at 120 min, 1 µM put CC[C@H]1OC(=O)[C@H](C)[C@@H](O[C@H]2C[C@@](C)(OC)[C@@H](O)[C@H](C)O2)[C@H](C)[C@@H](O[C@@H]2O[C@H](C)C[C@H](N(C)C)[C@H]2O)[C@](C)(OC)C[C@@H](C)C(=O)[C@H](C)[C@@H](O)[C@]1(C)O in?
Reply: top end

Ask: Band for the recorded efflux ratio at 120 min, 1 µM of CCN1CCCC1CNC(=O)c1cc(S(=O)(=O)CC)c(N)cc1OC (centres unmarked) [Amisulpride] ?
Reply: top end

Ask: Lab note: sort CCNc1nc(Cl)nc(NC(C)C)n1 into the matching efflux ratio at 120 min, 1 µM band.
Reply: bottom end

Ask: Which bin, given its efflux ratio at 120 min, 1 µM, does COCCc1ccc(OCC(O)CNC(C)C)cc1 (centres unmarked) occupy?
Reply: bottom end
